Target: Myeloperoxidase (Homo sapiens, UniProt P05164)
Assay: Inhibition of MPO chlorination activity (unknown origin) assessed as taurine chloramine formation after 5 mins in presence of H2O2/Cl- by HTS method
Measure: IC50 (nM)
Write it as a number; the unit nM goes unstated.

# count of solved cases: 4
>>> numeric_readout("Oc1ccccc1CCNCc1cccc(F)c1")
660
>>> numeric_readout("COc1ccccc1CCCNCc1ccccc1O")
2500
>>> numeric_readout("Oc1ccccc1CNCCCc1ccccc1")
1200
>>> numeric_readout("COc1ccccc1CCNCc1ccccc1O")
1850

Q: For the compound Oc1ccccc1CCNCc1ccccc1O , what IC50 is on record?
Result: 650

Q: Now consider Oc1ccccc1CCCNCc1ccccc1F .
Result: 270

Q: Try this compound too: Oc1ccccc1CCCNCc1ccc(F)cc1
Result: 490

Q: Similarly, Oc1ccccc1CN1CCN(Cc2ccccc2O)CC1 ?
Result: 1400

Q: Then what about the compound Oc1ccccc1CCNCc1ccc(F)cc1 ?
Result: 1160

Q: Repeat with Oc1ccccc1CNCCc1c[nH]c2ccc(F)cc12
Result: 85

====

Target: Sodium-dependent serotonin transporter (Homo sapiens, UniProt P31645)
Sequence (P31645 whole entry): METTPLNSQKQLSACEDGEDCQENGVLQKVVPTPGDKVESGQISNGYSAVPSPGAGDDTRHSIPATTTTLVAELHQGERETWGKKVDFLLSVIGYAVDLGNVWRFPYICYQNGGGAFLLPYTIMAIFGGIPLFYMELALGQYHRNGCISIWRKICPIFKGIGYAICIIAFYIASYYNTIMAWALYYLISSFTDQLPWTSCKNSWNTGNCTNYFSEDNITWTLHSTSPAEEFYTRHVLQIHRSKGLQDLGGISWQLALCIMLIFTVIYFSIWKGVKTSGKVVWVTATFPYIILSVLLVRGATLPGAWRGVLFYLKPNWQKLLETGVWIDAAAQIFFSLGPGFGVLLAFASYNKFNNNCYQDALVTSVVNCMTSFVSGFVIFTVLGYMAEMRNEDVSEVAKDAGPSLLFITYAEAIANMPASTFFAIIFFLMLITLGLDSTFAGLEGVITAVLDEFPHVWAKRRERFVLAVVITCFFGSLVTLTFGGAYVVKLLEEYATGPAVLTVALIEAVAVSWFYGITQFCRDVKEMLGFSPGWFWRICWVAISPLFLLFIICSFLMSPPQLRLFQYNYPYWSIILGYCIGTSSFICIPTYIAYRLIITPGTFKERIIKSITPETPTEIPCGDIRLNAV
Test: Inhibition of human SERT expressed in HEK293 cells assessed as reduction in [3]5-HT uptake
Format: cell-based
Attribute: Ki
State just the number; it will be interpreted in µM.

Please review the following examples before continuing.
>>> numeric_readout("Oc1ccccc1CCCNCc1ccccc1F")
14
>>> numeric_readout("Oc1ccccc1CCCNCc1ccccc1O")
11

Q: Missing value: Ki, Sodium-dependent serotonin transporter (Homo sapiens, UniProt P31645), entry Fc1ccc2[nH]cc(CCCNCc3ccccc3)c2c1 . Fill in?
Result: 0.05

Q: Request: Oc1ccccc1CNCCCc1c[nH]c2ccc(F)cc12
Result: 0.8

====

Assay: Redox potential of compound in Ag/AgCl-NaCl containing phosphate buffer assessed as one electron redox potential at 1 10^-4M by cyclic voltammetric analysis
Measure: Activity (mV)
Please state the figure in mV; there is no need to write the unit.

Worked cases, Activity given:
>>> numeric_readout("Oc1ccccc1CNCCCc1ccccc1F")
902
>>> numeric_readout("Oc1ccccc1CN1CCN(Cc2ccccc2O)CC1")
1070
>>> numeric_readout("COc1ccccc1CCNCc1ccccc1O")
907
>>> numeric_readout("Oc1ccccc1CCNCc1ccccc1F")
856
>>> numeric_readout("Oc1ccccc1CCCNCc1ccc(F)cc1")
869
>>> numeric_readout("Oc1ccccc1CCCNCc1ccccc1O")
844

Q: Can you share its Activity? I mean this compound: Fc1ccccc1CN1CCN(Cc2ccccc2F)CC1
Result: 1100

Q: Lookup Oc1ccccc1CNCCc1ccccc1
Result: 973

Q: And for Oc1ccccc1CCCNCc1ccccc1 ?
Result: 825

Q: // query: c1ccc(CN2CCN(Cc3ccccc3)CC2)cc1
Result: 996

Q: And what about the compound Oc1ccccc1CN1CCCCC1 ?
Result: 953

Q: Also check COc1ccccc1CCCNCc1ccccc1O
Result: 871

Q: Cool, now Oc1ccccc1CCNCc1ccccc1O
Result: 870

Q: Next entry: Oc1ccccc1CNCCCc1c[nH]c2ccc(F)cc12
Result: 872

Q: Next up: Oc1ccccc1CCCNCc1cccc(F)c1
Result: 820

Q: Next up: Fc1ccc(CN2CCN(Cc3ccc(F)cc3)CC2)cc1
Result: 1020

Q: Moving on to Oc1ccccc1CNCCc1ccccc1F
Result: 948

Q: Query Fc1cccc(CN2CCN(Cc3cccc(F)c3)CC2)c1 next
Result: 1060

Q: Query Oc1ccccc1CC1CCCNC1 (stereo not given) next
Result: 960

====

Biological target: Myeloperoxidase (Homo sapiens)
Sequence (P05164 whole entry): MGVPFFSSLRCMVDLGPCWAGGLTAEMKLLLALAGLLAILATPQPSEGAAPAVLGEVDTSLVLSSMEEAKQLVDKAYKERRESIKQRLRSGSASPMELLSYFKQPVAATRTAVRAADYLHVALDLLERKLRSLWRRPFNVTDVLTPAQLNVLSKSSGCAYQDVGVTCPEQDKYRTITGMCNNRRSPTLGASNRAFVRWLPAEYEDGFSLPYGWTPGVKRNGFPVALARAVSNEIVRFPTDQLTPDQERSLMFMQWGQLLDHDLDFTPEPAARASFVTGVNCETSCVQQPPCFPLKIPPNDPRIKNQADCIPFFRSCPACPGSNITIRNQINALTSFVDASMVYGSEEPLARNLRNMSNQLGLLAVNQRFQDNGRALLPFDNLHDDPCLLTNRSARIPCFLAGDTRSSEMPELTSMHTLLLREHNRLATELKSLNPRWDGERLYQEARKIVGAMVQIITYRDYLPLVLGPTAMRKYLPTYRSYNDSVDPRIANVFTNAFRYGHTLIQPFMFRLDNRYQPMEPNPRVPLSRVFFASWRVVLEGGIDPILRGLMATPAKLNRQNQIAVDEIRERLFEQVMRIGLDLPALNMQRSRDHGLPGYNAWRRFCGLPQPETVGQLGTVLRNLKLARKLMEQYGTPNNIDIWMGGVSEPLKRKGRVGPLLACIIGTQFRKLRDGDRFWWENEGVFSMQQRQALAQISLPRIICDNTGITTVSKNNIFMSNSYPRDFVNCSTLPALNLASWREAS
Test: Inhibition of MPO chlorination activity (unknown origin) assessed as taurine chloramine formation after 5 mins in presence of H2O2/Cl- by HTS method
Measure: pIC50
Reminder that pIC50 means the negative base-10 logarithm of the concentration expressed in mol/L.

>>> numeric_readout("Oc1ccccc1CNCCCc1c[nH]c2ccc(F)cc12")
7.27
>>> numeric_readout("Oc1ccccc1CNCCCc1ccccc1F")
6.43
>>> numeric_readout("Oc1ccccc1CNCCc1ccccc1")
6.15
>>> numeric_readout("Oc1ccccc1CCNCc1ccccc1")
5.57

Q: Quick one: pIC50 of Oc1ccccc1CCCNCc1ccccc1 ?
Result: 6.44

Q: Try this compound next: Oc1ccccc1CCNCc1ccccc1F
Result: 6.15

Q: Now consider Oc1ccccc1CCCNCc1cccc(F)c1 and answer again.
Result: 6.43

Q: Another compound to look at: Oc1ccccc1CCCNCc1ccccc1O
Result: 6.46

Q: // same read-out, input: Oc1ccccc1CNCCc1ccccc1F
Result: 6.17

====

Test: Redox potential of compound in Ag/AgCl-NaCl containing phosphate buffer assessed as one electron redox potential at 1 10^-4M by cyclic voltammetric analysis
Measure: Activity (mV)
Kindly answer with a numeric value in mV, unit omitted.

Look over these answered cases.
>>> numeric_readout("Oc1ccccc1CCNCc1ccccc1")
897
>>> numeric_readout("Oc1ccccc1CCCNCc1ccccc1F")
833
>>> numeric_readout("Oc1ccccc1CCNCc1cccc(F)c1")
807

Q: What value of measured Activity is listed for Oc1ccccc1CCNCc1ccc(F)cc1 ?
Result: 865

Q: Now the same for Oc1ccccc1CNCCc1c[nH]c2ccc(F)cc12
Result: 902

Q: Another molecule to look at: Oc1ccccc1CNCCCc1ccccc1
Result: 928
